Where do the numbers come from? From ChEMBL document CHEMBL1156597.

# System: A549
# protocol.details: Cytotoxicity against human A549 cells after 48 hrs by SRB assay
# Format: functional, cell-based
# applied.conditions: Homo sapiens, A549, 48 h
// reported LC50 per item
endpoint: LC50 (nM)

[[record]]
smiles_input = "C/C=C1\\NC(=O)[C@H](Cc2ccccc2)NC(=O)[C@@H](C(C)C)NC(=O)[C@@H]([C@H](C)CC)NC(=O)[C@H](NC(=O)[C@H](NC(=O)[C@H](CCCNC(=O)C(F)(F)F)NC(=O)[C@H]2CCCN2C(=O)[C@H](NC(=O)[C@@H](NC(=O)[C@@H](NC(=O)[C@H](NC(=O)CC[C@@H](C)CC)C(C)C)[C@@H](C)OC(=O)C(F)(F)F)C(C)C)C(C)C)[C@H](C)CC)[C@H](C)OC(=O)[C@H](C(C)C)NC1=O"
reported_measurement = 1180

[[record]]
smiles_input = "C/C=C1\\NC(=O)[C@H](Cc2ccccc2)NC(=O)[C@@H](C(C)C)NC(=O)[C@@H]([C@H](C)CC)NC(=O)[C@H](NC(=O)[C@H](NC(=O)[C@H](CCCN)NC(=O)[C@H]2CCCN2C(=O)[C@H](NC(=O)[C@@H](NC(=O)[C@@H](NC(=O)[C@@H](C(C)C)N(CCCCCC)CCCCCC)[C@@H](C)O)C(C)C)C(C)C)[C@H](C)CC)[C@H](C)OC(=O)[C@H](C(C)C)NC1=O"
reported_measurement = 1160

[[record]]
smiles_input = "CC[C@@H](C)[C@@H](NC(=O)[C@H](CCCN)NC(=O)[C@H]1CCCN1C(=O)[C@H](NC(=O)[C@@H](NC(=O)[C@@H](NC(=O)[C@H](NC(=O)CCCC(C)C)C(C)C)[C@@H](C)O)C(C)C)C(C)C)C(=O)N[C@H]1C(=O)N[C@H]([C@H](C)CC)C(=O)N[C@H](C(C)C)C(=O)N[C@@H](Cc2ccccc2)C(=O)N/C(=C\\c2ccccc2)C(=O)N[C@@H](C(C)C)C(=O)O[C@H]1C"
reported_measurement = 1110


---

Recorded GI50 for the following molecules
# System: LNCaP
# protocol.details: Cytotoxicity against human LNcaP cells after 48 hrs by SRB assay
# Type: functional
endpoint: GI50 (nM)

[[record]]
smiles_input = "C/C=C1\\NC(=O)[C@H](Cc2ccccc2)NC(=O)[C@@H](C(C)C)NC(=O)[C@@H]([C@H](C)CC)NC(=O)[C@H](NC(=O)[C@H](NC(=O)[C@H](CCCN)NC(=O)[C@H]2CCCN2C(=O)[C@H](NC(=O)[C@@H](NC(=O)[C@@H](NC(=O)[C@H](NC(=O)CCCCCCC)C(C)C)[C@@H](C)O)C(C)C)C(C)C)[C@H](C)CC)[C@H](C)OC(=O)[C@H](C(C)C)NC1=O"
endpoint = "GI50"
unit_string = "nM"
reported_measurement = 779

[[record]]
smiles_input = "C/C=C1\\NC(=O)[C@H](Cc2ccccc2)NC(=O)[C@@H](C(C)C)NC(=O)[C@@H]([C@H](C)CC)NC(=O)[C@H](NC(=O)[C@H](NC(=O)[C@H](CCCN)NC(=O)[C@H]2CCCN2C(=O)[C@H](NC(=O)[C@@H](NC(=O)[C@@H](NC(=O)[C@@H](CC2CCCCC2)NC(=O)CCCC(C)C)[C@@H](C)O)C(C)C)C(C)C)[C@H](C)CC)[C@H](C)OC(=O)[C@H](C(C)C)NC1=O"
endpoint = "GI50"
unit_string = "nM"
reported_measurement = 2980

[[record]]
smiles_input = "C/C=C1\\NC(=O)[C@H](Cc2ccc([N+](=O)[O-])cc2)NC(=O)[C@@H](C(C)C)NC(=O)[C@@H]([C@H](C)CC)NC(=O)[C@H](NC(=O)[C@H](NC(=O)[C@H](CCCN)NC(=O)[C@H]2CCCN2C(=O)[C@H](NC(=O)[C@@H](NC(=O)[C@@H](NC(=O)[C@H](NC(=O)CC[C@@H](C)CC)C(C)C)[C@@H](C)O)C(C)C)C(C)C)[C@H](C)CC)[C@H](C)OC(=O)[C@H](C(C)C)NC1=O"
endpoint = "GI50"
unit_string = "nM"
reported_measurement = 482

